Hi there, I'd appreciate the recorded AC50 for every entry that follows.
- SYSTEM UNDER TEST: Alpha-1A adrenergic receptor (Homo sapiens, UniProt P35348); also: assay procedure not described here
- Sequence (P35348 whole entry): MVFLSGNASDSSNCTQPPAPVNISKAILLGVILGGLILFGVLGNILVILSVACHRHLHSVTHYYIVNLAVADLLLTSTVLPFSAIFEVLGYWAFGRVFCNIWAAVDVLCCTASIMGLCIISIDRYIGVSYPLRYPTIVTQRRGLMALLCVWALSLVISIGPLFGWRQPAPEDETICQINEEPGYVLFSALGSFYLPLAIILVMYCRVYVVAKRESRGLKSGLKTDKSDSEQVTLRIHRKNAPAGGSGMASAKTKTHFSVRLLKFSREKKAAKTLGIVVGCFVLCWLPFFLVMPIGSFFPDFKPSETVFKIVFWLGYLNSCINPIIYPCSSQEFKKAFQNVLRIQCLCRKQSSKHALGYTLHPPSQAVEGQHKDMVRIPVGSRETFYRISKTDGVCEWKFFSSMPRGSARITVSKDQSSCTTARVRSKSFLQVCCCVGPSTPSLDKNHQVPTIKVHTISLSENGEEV

Provide AC50 values for the following items, in order.
1. O=C(O)[C@H](CC(=O)N1C[C@H]2CCCC[C@H]2C1)Cc1ccccc1 [MITIGLINIDE]
2. CC[C@H]1OC(=O)[C@H](C)[C@@H](O[C@H]2C[C@@](C)(OC)[C@@H](O)[C@H](C)O2)[C@H](C)[C@@H](O[C@@H]2O[C@H](C)C[C@H](N(C)C)[C@H]2O)[C@](C)(O)C[C@@H](C)CN(C)[C@H](C)[C@@H](O)[C@]1(C)O
3. CCCCc1ncc(/C=C(\Cc2cccs2)C(=O)O)n1Cc1ccc(C(=O)O)cc1
4. CCCc1nc(C(C)(C)O)c(C(=O)OCc2oc(=O)oc2C)n1Cc1ccc(-c2ccccc2-c2nnn[nH]2)cc1
5. O=C(O)C1=C(CSc2nnnn2CS(=O)(=O)O)CS[C@@H]2[C@H](NC(=O)[C@H](O)c3ccccc3)C(=O)N12
6. Cc1cc(O)c(C(=O)N[C@@H](C(=O)N[C@@H]2C(=O)N3C(C(=O)O)=C(CSc4nnnn4C)CS[C@H]23)c2ccc(O)cc2)cn1 [CEFPIRAMIDE]

Result block:
> 10 µM
> 10 µM
> 10 µM
> 10 µM
> 30 µM
> 30 µM

Provide AC50 values for the following items, in order.
1. CC(C[N+](C)(C)C)OC(N)=O (centres undefined)
2. CC1(C)O[C@@H]2C[C@H]3[C@@H]4CCC5=CC(=O)C=C[C@]5(C)[C@H]4[C@@H](O)C[C@]3(C)[C@]2(C(=O)CO)O1 [DESONIDE]

Result block:
1: > 10 µM; 2: > 10 µM

# molecule O=[N+]([O-])O[C@@H]1CO[C@H]2[C@@H]1OC[C@@H]2O [ISOSORBIDE MONONITRATE] ; its AC50 = > 10 µM

Values were extracted from ChEMBL document CHEMBL5291721.
